test: Partition coefficient, logD of compound at pH 7.4 by HPLC analysis; type: physicochemical; conditions: octanol/water
experimental readout: logD

Example compounds with recorded logD:
{"compound": "Cc1[nH]nc2c1C(c1cc(F)cc(-c3cccc(C(=O)O)c3)c1)(C(C)C)C(C#N)=C(N)O2 (racemic)", "logD": 1.5}
{"compound": "Cc1[nH]nc2c1C(c1cc(C#N)cc(-c3cccc(C(=O)O)c3)c1)(C(C)C)C(C#N)=C(N)O2 (racemic)", "logD": 1.4}

(P) Cc1[nH]nc2c1C(c1cc(-c3cccc(C(=O)O)c3)cc(C(F)(F)F)c1)(C(C)C)C(C#N)=C(N)O2 (racemic)
(Q) Cc1[nH]nc2c1C(c1cc(F)cc(N3CCC(C(=O)O)CC3)c1)(C(C)C)C(C#N)=C(N)O2 (racemic)
# min-compare on logD between P and Q I would appreciate it if you answered with the label of your choice.
Q
